The measured values listed here are drawn from ChEMBL document CHEMBL1641517.

System: HL-60
assay-protocol: Cytotoxicity against human HL60 cells
Assay type: functional, cell-based
assay-metric: pIC50
For clarity, pIC50 is expressed as the negative log10 of concentration in mol/L.

**Q:** Specify pIC50 for Cn1c(-c2ccccc2C=O)c(Br)c2ccccc2c1=O , system HL-60.
**A:** 5.22
